- measurement target: Bromodomain-containing protein 4 (Homo sapiens, UniProt O60885)
- measurement protocol: Inhibition of BRD4 BD1 (unknown origin) by TR-FRET assay
test readout: IC50 (nM)
Write it as a number; the unit nM goes unstated.

Task: Dear colleague, please send me the reported IC50 for C[C@@H]1CN(S(C)(=O)=O)CCN1Cc1cc2c(=O)n(C)cc(-c3nccnc3OCC3CC3)c2o1 when you can.
Output: 18

Task: Dear colleague, please send me the reported IC50 for C[C@@H]1CN(S(C)(=O)=O)CCN1Cc1cc2c(=O)n(C)cc(-c3cccc(NS(C)(=O)=O)c3)c2o1 when you can.
Output: 27

Task: Dear colleague, please send me the reported IC50 for C[C@@H]1CN(S(C)(=O)=O)CCN1Cc1cc2c(=O)n(C)cc(-c3nc(Cl)cn3CC3CCOCC3)c2o1 when you can.
Output: 53

Task: Dear colleague, please send me the reported IC50 for C[C@@H]1CN(S(C)(=O)=O)CCN1Cc1cc2c(=O)n(C)cc(-c3nc(Cl)c(Cl)n3CC3CCOCC3)c2o1 when you can.
Output: 150

Task: Dear colleague, please send me the reported IC50 for C[C@@H]1CN(S(C)(=O)=O)CCN1Cc1cc2c(=O)n(C)cc(-c3cc(Cl)nn3CC3CCOCC3)c2o1 when you can.
Output: 180

Task: Dear colleague, please send me the reported IC50 for CC(=O)Nc1cc(-c2cn(C)c(=O)c3cc(CN4CCN(S(C)(=O)=O)C[C@H]4C)oc23)ccn1 when you can.
Output: 63

Task: Dear colleague, please send me the reported IC50 for C[C@@H]1CN(S(C)(=O)=O)CCN1Cc1cc2c(=O)n(C)cc(-c3cc(NS(C)(=O)=O)ccc3OCC3CC3)c2o1 when you can.
Output: 11
